Listing of recorded TGI by entry.
system: K-562 leukemia; assay: NCI tumour cell line growth inhibition, 48 h
measurement_kind: TGI

CCOC(=O)/C(=C(/C)NCC(C)C)c1cc(O)c(O)c2c(C)cc(=O)[nH]c12
> 100 µM
O=S(=O)(Nc1cc(Cl)ccc1Cl)c1ccc(-c2cnc(C3CC3)o2)cc1
> 100 µM
CN1CCN(CCCCN2c3ccccc3Sc3cc(N=[N+]=[N-])ccc32)CC1
3.04 µM
N#CS.N=C=S.N=C=S.[Cu+2].[NH2-].[NH2-].[NH2-].[NH2-].c1ccc2ncccc2c1
> 100 µM
O=C1c2ccccc2C(=O)N1C/C=C/CO
> 100 µM
Cc1nc(C(N)=S)sc1C(=O)CC(=O)C(=O)Nc1nc2ccccc2[nH]1
> 100 µM
Clc1ccc(-c2ccc(-c3nn4c(CNc5ccccc5)nnc4s3)o2)c(Cl)c1
> 100 µM
C[C@H]1[C@H]2[C@H]3CC[C@@H]4[C@@]5(C)C/C(=C/c6cccnc6)C(=O)C(C)(C)[C@@H]5CC[C@@]4(C)[C@]3(C)CC[C@]23CO[C@]1(C)[C@@H](C(=O)/C=C\c1cccnc1)C3
> 50 µM
CC(C)N1CN(C(C(=O)N[C@@H]2C(=O)N3C2SC(C)(C)C3C(=O)O)c2ccc(O)cc2)CSC1=S (stereo partly drawn)
> 100 µM
COc1cccc2c1c(C1=C(c3cn(C)c4ccccc34)C(=O)NC1=O)cn2C
> 25 µM
COC(=O)C1C2CC3C1C3C2C(=O)OC (stereo not drawn)
> 100 µM
O=S(O)CCCSSc1ccccc1
> 100 µM
O=C(CCC(C(=O)c1ccccc1)c1ccccc1)c1ccccc1 (stereo not drawn)
> 100 µM

---

system: M14 melanoma; experiment: NCI tumour cell line growth inhibition, 48 h
TGI vs 4 µM: at or above is 1, below is 0.

O[C@@H]1C[C@H]2N3CC[C@@]2(c2cc4c(cc2C3)OCO4)[C@H]2O[C@@H]12
1
C=C(C)[C@@H]1CC[C@]2(CO)CC[C@]3(C)[C@H](CC[C@@H]4[C@@]5(C)CCC(NCCc6ccc(O)cc6)C(C)(C)[C@@H]5CC[C@]43C)[C@@H]12 (some centres not stated)
0
COc1ccc(OC)c(CC(C)N)c1 (configuration not stated)
1
Cc1ccc(-c2nc(N3CCCNCC3)c3oc(-c4ccccc4)nc3n2)cc1
0
CCOC(=O)c1ccc(NC(=O)SCCC(=O)O)cc1
1
CN(Cc1ccccc1)C(=NC#N)N(C)Cc1ccccc1
1
O=C1OCc2cc3cc4c(cc3c(-c3ccc5c(c3)OCO5)c21)OCO4 (tested in a mixture with another compound)
1
CCCCCCCC(=O)OCC1OC(OC)C(NC(=O)N(CCCl)N=O)C(O)C1O (configuration not stated)
1
O=C1C2CN(Cc3ccccc3)CC1CN(CC1CC1)C2
1
S=c1nc(Cl)cc2[nH]c(Cl)cn12
1
Cc1nc2c(o1)C(=O)c1ccccc1C2=Nc1ccc(N2CCOCC2)cc1
0

---

test system: CAKI-1 renal; test: NCI tumour cell line growth inhibition, 48 h
measurement_kind: TGI

CCCCCCCCCCCCCCCCOP(=O)(O)OP(=O)(O)OCC1OC(n2ccc(N)nc2=O)C(O)C1O (stereo not drawn)
> 100 µM
COC(=O)[C@H](Cc1ccc(O)cc1)NC(=O)[C@@H](OC)[C@@H]1Cc2cc3cc(OC4CC(OC5CC(O)C(O)C(C)O5)C(O)C(C)O4)c(C)c(O)c3c(O)c2C(=O)[C@H]1OC1CC(OC2CC(OC3CC(C)(O)C(O)C(C)O3)C(O)C(C)O2)C(O)C(C)O1 (stereo partly drawn)
> 25 µM
CC(C)N1CN(C(C(=O)N[C@@H]2C(=O)N3C2SC(C)(C)C3C(=O)O)c2ccc(O)cc2)CSC1=S (stereo partly drawn)
> 100 µM
